Would you mind telling me the reported IC50 of each entry?
- Test system: CCRF-CEM
- measurement_protocol: Ability to inhibit the cytopathic effect induced by HIV-1 infection in CEM T-lymphoblastoid tumor cell line
- Assay type: functional, cell-based
- condition_context: Homo sapiens
Numbers only, in nM.

C=C(CSCCO)[C@@H]1CC[C@]2(C(=O)NCCCCCCCCCCC(=O)O)CC[C@]3(C)[C@H](CCC4[C@@]5(C)CC[C@H](O)C(C)(C)[C@@H]5CC[C@]43C)[C@@H]12 (stereo not given in full) | 290

Hey, quick one: what's IC50 for each of these?
1. C=C(CNC(C)=O)[C@@H]1CC[C@]2(C(=O)NCCCCCCCCCCC(=O)O)CC[C@]3(C)[C@H](CCC4[C@@]5(C)CC[C@H](O)C(C)(C)[C@@H]5CC[C@]43C)[C@@H]12 (stereo not given in full)
2. C=C(C)[C@@H]1CC[C@]2(C(=O)NCCCCCCCCCCC(=O)O)CC[C@]3(C)C(CC[C@@H]4[C@@]5(C)CC=CC(C)(C)C5CC[C@]43C)C12 (stereo not given in full)
3. C=C(CNCCO)[C@@H]1CC[C@]2(C(=O)NCCCCCCCCCCC(=O)O)CC[C@]3(C)[C@H](CCC4[C@@]5(C)CC[C@H](O)C(C)(C)[C@@H]5CC[C@]43C)[C@@H]12 (stereo not given in full)
4. C=C(CSCCN(CC)CC)[C@@H]1CC[C@]2(C(=O)NCCCCCCCCCCC(=O)O)CC[C@]3(C)[C@H](CCC4[C@@]5(C)CC[C@H](O)C(C)(C)[C@@H]5CC[C@]43C)[C@@H]12 (stereo not given in full)
5. C=C(CN1CCCC1)[C@@H]1CC[C@]2(C(=O)NCCCCCCCCCCC(=O)O)CC[C@]3(C)[C@H](CCC4[C@@]5(C)CC[C@H](O)C(C)(C)[C@@H]5CC[C@]43C)[C@@H]12 (stereo not given in full)
6. C=C(CSc1ccc(F)cc1)[C@@H]1CC[C@]2(C(=O)NCCCCCCCCCCC(=O)O)CC[C@]3(C)[C@H](CCC4[C@@]5(C)CC[C@H](O)C(C)(C)[C@@H]5CC[C@]43C)[C@@H]12 (stereo not given in full)
7. C=C(C)[C@@H]1CC[C@]2(C(=O)NCCCCCCCCCCC(=O)O)CC[C@]3(C)C(CC[C@@H]4[C@@]5(C)C=C(O)C(=O)C(C)(C)C5CC[C@]43C)C12 (stereo not given in full)

1250
1800
5750
1000
1000
2000
3000

Look at each compound and report its IC50.
1. CC1(C)C(O)CC[C@@]2(C)C1CC[C@]1(C)C2CCC2C3[C@H](C(=O)O)CC[C@]3(C(=O)NCCCCCCCCCCC(=O)O)CC[C@]21C (stereo not given in full)
2. C=C(CO)[C@@H]1CC[C@]2(C(=O)NCCCCCCCCCCC(=O)O)CC[C@]3(C)[C@H](CCC4[C@@]5(C)CC[C@H](O)C(C)(C)[C@@H]5CC[C@]43C)[C@@H]12 (stereo not given in full)

[50000, 200]

###

- Tested on: CCRF-CEM
- measurement_protocol: Ability to inhibit the cytopathic effect induced by HIV-1 infection in CEM T-lymphoblastoid tumor cell line
- Assay type: functional, cell-based
- condition_context: Homo sapiens
For each entry below, report its IC50 value.
One number for each entry, in nM.

State the recorded IC50 for every item in the following list.
1. C=C(C)[C@@H]1CC[C@]2(C(=O)NCCCCCCCCCCC(=O)O)CC[C@]3(C)[C@H](CCC4[C@@]5(C)CC[C@@H](O)C(C)(C)[C@@H]5CC[C@]43C)[C@@H]12 (stereo not given in full)
2. C=C(C)[C@@H]1CC[C@]2(C(=O)NCCCCCCCCCCC(=O)O)CC[C@]3(C)[C@H](CCC4[C@@]5(C)CC[C@H](O)C(C)(C)[C@@H]5CC[C@]43C)[C@@H]12 (stereo not given in full)
3. CC(C)[C@@H]1CC[C@]2(C(=O)NCCCCCCCCCCC(=O)O)CC[C@]3(C)C(CC[C@@H]4[C@@]5(C)CCC(O)C(C)(C)C5CC[C@]43C)C12 (stereo not given in full)
4. CC(=O)[C@@H]1CC[C@]2(C(=O)NCCCCCCCCCCC(=O)O)CC[C@]3(C)C(CCC4[C@@]5(C)CCC(O)C(C)(C)C5CC[C@]43C)C12 (stereo not given in full)
5. C=C(C)[C@@H]1CC[C@]2(C(=O)NCCCCCCCCCCC(=O)O)CC[C@]3(C)[C@H](CCC4[C@@]5(C)CCC(=O)C(C)(C)[C@@H]5CC[C@]43C)[C@@H]12 (stereo not given in full)

1: 3000; 2: 230; 3: 1500; 4: 12000; 5: 1200
